B1: PhoQ; a variant is named by its letters at X, in order, P23837 (parent)
chain: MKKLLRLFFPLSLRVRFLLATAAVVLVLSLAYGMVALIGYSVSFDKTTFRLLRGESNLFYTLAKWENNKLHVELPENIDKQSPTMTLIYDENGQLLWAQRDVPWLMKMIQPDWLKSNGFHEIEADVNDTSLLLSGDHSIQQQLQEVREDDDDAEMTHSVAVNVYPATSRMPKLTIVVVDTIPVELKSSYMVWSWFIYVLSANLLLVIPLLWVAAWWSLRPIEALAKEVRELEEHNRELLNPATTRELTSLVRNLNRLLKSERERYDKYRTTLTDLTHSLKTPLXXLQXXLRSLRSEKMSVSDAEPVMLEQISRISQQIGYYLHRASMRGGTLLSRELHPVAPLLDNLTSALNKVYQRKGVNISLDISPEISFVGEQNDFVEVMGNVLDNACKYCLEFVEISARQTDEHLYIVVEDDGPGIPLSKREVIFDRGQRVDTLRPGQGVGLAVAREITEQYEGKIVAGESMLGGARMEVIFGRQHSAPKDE

variants of: B1; test: enrichment ratio after two sorts for PhoP signalling (ratio (wild type AVST 3.29)); higher = more functional; settings: with PhoP (E. coli)
In all, about 140,000 sequences were measured (“enrichment ratio after two sorts for PhoP signalling”: median about 0, highest 2% from about 11 on). The full list was thinned out, with the highest values kept by preference.
ASSAY METRIC: enrichment ratio

Recorded enrichment ratio, per entry:
Entry `TITM` has what enrichment ratio?
17.6

Same question, `EMQV` this time
≤ 0.25

Please give the result for `SQCM` too.
19.2

// same read-out, input: `WMYW`
≤ 0.25

Next: `MKLM`
7.36

Others:
# enrichment ratio lookup, item `NEGH`
≤ 0.25

# iterate: `QYMG`
≤ 0.25

Then this variant: `TELM`
13.8

Another variant to check: `QENM`
≤ 0.25

Moving on to the next variant: `LFIM`
≤ 0.25

Can you handle `TINS` next?
9.25

Repeat with `RSSV`
≤ 0.25

Then `NQCM` ?
≤ 0.25

What do you have for `NELM` ?
≤ 0.25

Ok, now `QSDY`
14.5

Repeat with `TWYG`
≤ 0.25

Thanks! And `EQCM` ?
≤ 0.25

All figures here come from a collection of fitness landscapes (doi:10.1126/science.1257360).
